# Test system: human iPSC-derived microglia (hiPSC-MG)
# assayExplanation: hiPSC-MG survival (Presto-Blue viability)
# Assay type: cell-based
# studyConditions: Homo sapiens, Microglia, 48 h treatment
readout: pIC50
One number for each entry, as −log10 of the molar value.

Recorded pIC50 of COc1ccc(COc2ncc(Cc3ccnc4cc(OC)cnc34)cc2OC)nc1 , please.
7.50

----------
# testedSystem: PDGFRβ (Homo sapiens (Human), UniProt P09619)
# Sequence (P09619 33-1106): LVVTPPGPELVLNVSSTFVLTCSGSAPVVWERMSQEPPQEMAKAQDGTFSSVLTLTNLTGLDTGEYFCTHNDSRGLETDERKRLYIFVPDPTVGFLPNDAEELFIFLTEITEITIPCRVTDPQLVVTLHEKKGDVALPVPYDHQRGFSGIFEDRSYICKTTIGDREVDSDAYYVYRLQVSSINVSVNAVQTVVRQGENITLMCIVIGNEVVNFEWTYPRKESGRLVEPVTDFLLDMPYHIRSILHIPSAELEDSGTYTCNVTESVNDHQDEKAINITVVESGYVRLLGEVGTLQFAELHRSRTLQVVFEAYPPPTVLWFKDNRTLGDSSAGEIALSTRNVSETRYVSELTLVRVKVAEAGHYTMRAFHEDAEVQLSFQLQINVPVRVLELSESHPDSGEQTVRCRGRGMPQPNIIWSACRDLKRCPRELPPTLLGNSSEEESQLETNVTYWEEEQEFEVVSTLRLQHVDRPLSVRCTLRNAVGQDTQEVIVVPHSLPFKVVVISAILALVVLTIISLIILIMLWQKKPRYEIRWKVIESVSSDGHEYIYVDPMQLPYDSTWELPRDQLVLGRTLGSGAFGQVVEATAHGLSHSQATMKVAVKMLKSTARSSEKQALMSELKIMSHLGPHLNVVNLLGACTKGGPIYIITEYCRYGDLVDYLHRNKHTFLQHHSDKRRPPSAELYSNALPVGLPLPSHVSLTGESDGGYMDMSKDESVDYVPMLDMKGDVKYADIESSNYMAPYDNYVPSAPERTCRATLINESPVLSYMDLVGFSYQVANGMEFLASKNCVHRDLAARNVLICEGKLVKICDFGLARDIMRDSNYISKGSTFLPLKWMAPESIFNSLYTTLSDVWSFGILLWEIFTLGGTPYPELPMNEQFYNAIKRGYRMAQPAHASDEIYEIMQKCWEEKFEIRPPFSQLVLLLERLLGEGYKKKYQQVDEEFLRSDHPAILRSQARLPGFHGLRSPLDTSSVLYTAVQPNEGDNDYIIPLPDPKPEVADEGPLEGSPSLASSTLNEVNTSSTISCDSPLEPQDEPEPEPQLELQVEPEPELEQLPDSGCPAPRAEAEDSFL
# assayExplanation: Biochemical HTRF kinase assay, PDGFRβ;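 note: kinase reaction with substrate/ATP mix run 1 h at room temperature in 384-well format, HTRF signal detection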
# studyConditions: selectivity: IC50 of PDGFR-1β as multiple of IC50 of CSF-1R
Please go through the items and note down their PDGFR-1β Fold.

// below: answered compounds
- compound: "COc1cnc2c(Cc3cnc(OCc4ccc([C@H]5CC5(F)F)cn4)c(OC)c3)ccnc2c1 (stereo in doubt) [Example 81]"
  testedSystem: "PDGFRβ (Homo sapiens (Human), UniProt P09619)"
  PDGFR-1β Fold: "72.7 fold"
- compound: "COc1cnc2c(Cc3cnc(OCc4cc5n(n4)CCOC5)c(OC)c3)ccnc2c1"
  testedSystem: "PDGFRβ (Homo sapiens (Human), UniProt P09619)"
  PDGFR-1β Fold: ">100 fold"
- compound: "COc1cnc2c(Cc3cnc(OCc4cc5n(n4)C[C@H](OC)C5)c(OC)c3)ccnc2c1"
  testedSystem: "PDGFRβ (Homo sapiens (Human), UniProt P09619)"
  PDGFR-1β Fold: ">100 fold"

// for each compound below, give its PDGFR-1β Fold
1. [2H]C([2H])([2H])Oc1cc(Cc2ccnc3cc(OC)cnc23)cnc1OCc1ccc(OC)cn1
2. COc1cnc2c(Cc3cnc(OCc4cc(C(C)C)n(C)n4)c(OC)c3)ccnc2c1
3. COc1cnc2c(Cc3cnc(OCc4ccc(C5CC5)cn4)c(OC)c3)ccnc2c1
4. COc1cnc2c(Cc3cnc(OCc4cc(C)n(C5COC5)n4)c(OC)c3)ccnc2c1
5. COc1cnc2c(Cc3cnc(OCc4ccc(OC(F)F)cn4)c(OC)c3)ccnc2c1

>100 fold
>100 fold
79 fold
>100 fold
>100 fold
